biological target: Phosphopantetheine adenylyltransferase (Escherichia coli (strain K12), UniProt P0A6I6); assay: High-Throughput Screening Assay (Forward Direction Assay)
Sequence (P0A6I6 whole entry): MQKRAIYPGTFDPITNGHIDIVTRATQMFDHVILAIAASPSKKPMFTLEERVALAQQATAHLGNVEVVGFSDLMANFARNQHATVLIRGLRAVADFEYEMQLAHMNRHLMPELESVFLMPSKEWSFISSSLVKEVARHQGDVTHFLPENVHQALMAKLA
pIC50: −log10 of the molar value.
Measure name: pIC50

Consider the reported pIC50 for these compounds:
Compound	Measure name	Reported measurement
O=C(O)c1cc2nc3ccc(F)cc3c(=O)n2[nH]1 [7-substituted pyrazoloquinolone, 9]	pIC50	3.99
Nc1ccc2c(=O)n3[nH]c(C(=O)O)cc3nc2c1 [6-substituted pyrazoloquinolone, 21]	pIC50	3.92
C[S+]([O-])c1ccc2nc3cc(C(=O)O)[nH]n3c(=O)c2c1 (configuration not stated) [7-substituted pyrazoloquinolone, 13]	pIC50	3.78
CS(=O)(=O)c1ccc2nc3cc(C(=O)O)[nH]n3c(=O)c2c1 [7-substituted pyrazoloquinolone, 14]	pIC50	4.04
Cc1ccc2nc3cc(C(=O)O)[nH]n3c(=O)c2c1 [7-substituted pyrazoloquinolone, 7]	pIC50	3.61

I = Cn1c2ccc(Cl)cc2c(=O)n2nc(C(=O)O)cc12 [4-substituted pyrazoloquinolone, 18]
II = O=C(O)c1cc2nc3ccc(Cl)cc3c(=O)n2[nH]1 [7-substituted pyrazoloquinolone, 8]
Ask: Consider entries I and II . Which has the numerically lower pIC50? Label of pick, please.
Reply: I

----------
target: Phosphopantetheine adenylyltransferase (Escherichia coli (strain K12)); test: Reverse PPAT Assay
Measure name: IC50 (µM)

Consider the worked cases shown below.
Smiles str	Target under test	Value unit	IC50
O=C(O)c1cc2nc3ccc(I)cc3c(=O)n2[nH]1	Phosphopantetheine adenylyltransferase (Escherichia coli (strain K12))	µM	11
CN(C)c1ccc2nc3cc(C(=O)O)[nH]n3c(=O)c2c1	Phosphopantetheine adenylyltransferase (Escherichia coli (strain K12))	µM	7.1

I = CSc1ccc2nc3cc(C(=O)O)[nH]n3c(=O)c2c1
II = O=C(O)c1cc2nc3cc(Cl)ccc3c(=O)n2[nH]1
III = CC(C)Sc1ccc2nc3cc(C(=O)O)[nH]n3c(=O)c2c1
IV = O=C(O)c1cc2nc3ccc(Br)cc3c(=O)n2[nH]1
V = O=C(O)c1cc2nc3cc(C(F)(F)F)ccc3c(=O)n2[nH]1
Ask: Order field: IC50 | Direction: descending (largest first) List the labels according to the requested ordering.
Reply: V, II, IV, I, III

----------
biological target: Phosphopantetheine adenylyltransferase (Escherichia coli (strain K12)); assay: High-Throughput Screening Assay (Forward Direction Assay)
Measure name: IC50 (µM)

Consider the worked cases shown below.
Smiles str	Reported measurement
CN(C)c1ccc2nc3cc(C(=O)O)[nH]n3c(=O)c2c1	49
Cc1ccc2c(=O)n3[nH]c(C(=O)O)cc3nc2c1	15

A = CC(C)Sc1ccc2nc3cc(C(=O)O)[nH]n3c(=O)c2c1
B = O=C(O)c1cc2nc3ccccc3c(=O)n2[nH]1
Ask: Lower value for measured IC50? Options: A , B Write down the label attached to your selection.
Reply: A

----------
biological target: Phosphopantetheine adenylyltransferase (Escherichia coli (strain K12)); test: High-Throughput Screening Assay (Forward Direction Assay)
pIC50: −log10 of the molar value.
Measure name: pIC50

1 = Cc1c(C(=O)O)[nH]n2c(=O)c3ccc(Cl)cc3nc12
2 = O=C(O)c1cc2nc3cc(Cl)ccc3c(=O)n2[nH]1
3 = O=C(O)c1cc2nc3ccc(I)cc3c(=O)n2[nH]1
Ask: Using measured pIC50, arrange the compounds from above in descending sequence. Please respond with the labels ordered as the question requires.
Reply: 3, 2, 1

----------
molecular target: Phosphopantetheine adenylyltransferase (Enterococcus faecalis (strain ATCC 700802 / V583)); test: High-Throughput Screening Assay (Forward Direction Assay)
Sequence (Q831P9 whole entry): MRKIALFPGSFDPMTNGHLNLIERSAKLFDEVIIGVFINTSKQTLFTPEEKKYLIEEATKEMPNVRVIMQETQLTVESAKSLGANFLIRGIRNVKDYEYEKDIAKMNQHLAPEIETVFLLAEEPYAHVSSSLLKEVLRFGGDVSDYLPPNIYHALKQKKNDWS
Listed here: items and their measured IC50.

Answered examples (3):
Compound	IC50
O=C(O)c1cc2nc3cc(Cl)ccc3c(=O)n2[nH]1	212 µM
Cc1c(C(=O)O)[nH]n2c(=O)c3ccc(Cl)cc3nc12	> 167 µM
Cc1ccc2c(=O)n3[nH]c(C(=O)O)cc3nc2c1	> 167 µM

Ask: Form field: reported IC50 of C[S+]([O-])c1ccc2nc3cc(C(=O)O)[nH]n3c(=O)c2c1 (stereo unspecified)
Reply: 20 µM

Ask: Quick check: IC50 of O=C(O)c1cc2nc3ccccc3c(=O)n2[nH]1 ?
Reply: > 167 µM

Ask: Name the reported IC50 value associated with the compound CSc1ccc2nc3cc(C(=O)O)[nH]n3c(=O)c2c1
Reply: > 65 µM

Ask: Need IC50, item COc1ccc2nc3cc(C(=O)O)[nH]n3c(=O)c2c1
Reply: > 167 µM

Ask: Requested field: IC50. Item: O=C(O)c1cc2nc3ccc(I)cc3c(=O)n2[nH]1
Reply: > 137 µM

Ask: What does the record list as IC50 for O=C(O)c1cc2nc3ccc(F)cc3c(=O)n2[nH]1 ?
Reply: > 167 µM

----------
molecular target: Phosphopantetheine adenylyltransferase (Escherichia coli (strain K12)); experiment: High-Throughput Screening Assay (Forward Direction Assay)
pIC50: −log10 of the molar value.
Measure name: pIC50

Smiles str	Target under test	pIC50
O=C(O)c1cc2nc3ccc(Br)cc3c(=O)n2[nH]1	Phosphopantetheine adenylyltransferase (Escherichia coli (strain K12))	5.21

I = O=C(O)c1cc2nc3cc(Br)ccc3c(=O)n2[nH]1
II = CSc1ccc2nc3cc(C(=O)O)[nH]n3c(=O)c2c1
III = O=C(O)c1cc2nc3cc(C(F)(F)F)ccc3c(=O)n2[nH]1
Ask: Put the entries in order of pIC50, starting with the largest number. Enter labels, ranked according to the request.
Reply: II, III, I

----------
target: Phosphopantetheine adenylyltransferase (Enterococcus faecalis (strain ATCC 700802 / V583)); experiment: High-Throughput Screening Assay (Forward Direction Assay)
pIC50: −log10 of the molar value.
Measure name: pIC50

Example cases with answers are listed next.
Smiles str	Target under test	pIC50
O=C(O)c1cc2nc3ccc(Br)cc3c(=O)n2[nH]1	Phosphopantetheine adenylyltransferase (Enterococcus faecalis (strain ATCC 700802 / V583))	3.68
CN(C)c1ccc2nc3cc(C(=O)O)[nH]n3c(=O)c2c1	Phosphopantetheine adenylyltransferase (Enterococcus faecalis (strain ATCC 700802 / V583))	3.80

P = CC(C)Sc1ccc2nc3cc(C(=O)O)[nH]n3c(=O)c2c1
Q = Nc1ccc2c(=O)n3[nH]c(C(=O)O)cc3nc2c1
Ask: Lower value for measured pIC50? Options: P , Q In your reply, give the label of the chosen option.
Reply: P
(P: 3.60, Q: 4.00)

----------
target: Phosphopantetheine adenylyltransferase (Enterococcus faecalis (strain ATCC 700802 / V583)); assay: High-Throughput Screening Assay (Forward Direction Assay)
IC50 values, listed per item

Answered cases to consult:
Smiles str	Measure name	Reported measurement
O=C(O)c1cc2nc3ccc(Cl)cc3c(=O)n2[nH]1	IC50	> 75 µM
O=C(O)c1cc2nc3cc(Br)ccc3c(=O)n2[nH]1	IC50	> 167 µM

Please turn your attention to the following entry.
Ask: # input compound: O=C(O)c1cc2nc3cc(C(F)(F)F)ccc3c(=O)n2[nH]1 ; wanted: its IC50
Reply: > 167 µM
